measurementTarget: T1, Spy D26K (UniProt P77754 24-161, D26K)
T1 construct: source: E. coli BL21 (DE3), purified (Ni-NTA, cation exchange, SEC); not shown: His6, N-terminal, cleaved; SUMO, N-terminal, cleaved
T1 sequence (looked up): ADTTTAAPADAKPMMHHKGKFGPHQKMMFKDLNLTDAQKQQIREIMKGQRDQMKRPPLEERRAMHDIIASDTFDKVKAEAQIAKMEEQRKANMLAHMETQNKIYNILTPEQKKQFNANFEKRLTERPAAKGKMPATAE
assayProtocol: BLI; Octet RED96; client biotinylated and loaded on streptavidin sensors; Spy or Spy variant in solution at 0.25, 0.5, 1, 1.5 and 2 μM; 40 mM HEPES, 150 mM NaCl, pH 7.5; Kd calculated as koff/kon
condition: both partners purified
resultType: pKd
Note: pKd values are expressed as the negative base-10 logarithm of concentration in M.

Which pKd is listed for Im7 H40W L53A I54A (natural protein, biotin (EZ-link NHS-biotin, 1:1 molar ratio of biotin to protein), Im7 (colicin E7 immunity protein) with H40W L53A I54A; Spy was made with an N-terminal His6-SUMO tag that was cleaved; also called Im7AAW; partially folded client; source: purified by a similar procedure to Spy) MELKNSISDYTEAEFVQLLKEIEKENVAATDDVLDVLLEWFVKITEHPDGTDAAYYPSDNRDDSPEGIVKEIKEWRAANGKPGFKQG ?
6.59

Ref: paper PMC9122904
